# Plant response rating, Barnyardgrass per entry
- Test system: barnyardgrass
- measurement.description: Test A postemergence
- Assay type: in vivo, Echinochloa crus-galli
- condition.set: 125 g ai/ha, 0 to 100 scale where 0 is no effect and 100 is complete control

Example cases with answers are listed next.
[
  {
    "test.smiles": "C=Cc1cnn(-c2ccccc2Oc2ncc(Cl)cn2)c1",
    "readout.name": "Plant response rating, Barnyardgrass",
    "result.value": 10
  },
  {
    "test.smiles": "Fc1cnc(Oc2ccccc2-n2cc(C(F)(F)F)cn2)nc1",
    "readout.name": "Plant response rating, Barnyardgrass",
    "result.value": 30
  },
  {
    "test.smiles": "Cc1cnc(Oc2cccc(C#N)c2-n2cc(C#N)cn2)nc1",
    "readout.name": "Plant response rating, Barnyardgrass",
    "result.value": 90
  },
  {
    "test.smiles": "Cc1cnc(Oc2ccccc2-n2cc(Cl)cn2)nc1",
    "readout.name": "Plant response rating, Barnyardgrass",
    "result.value": 0
  }
]

Return the recorded Plant response rating, Barnyardgrass value; entry: Cc1cnc(Oc2cccc(C#N)c2-n2cc(Br)cn2)nc1
60

Return the recorded Plant response rating, Barnyardgrass value; entry: COc1ccc(Oc2ncc(Br)cn2)c(-n2cc(Br)cn2)c1
0

* * *

# Plant response rating, Nutsedge, Yellow per entry
- Tested on: yellow nutsedge
- measurement.description: Test C postemergence
- Format: in vivo, Cyperus esculentus
- condition.set: 125 g ai/ha, postemergence; visual rating, scale 0 to 100 (0 no effect, 100 complete control)
Lab note: write the figure by itself, no unit.

Example cases with answers are listed next.
[
  {
    "test.smiles": "N#Cc1cnn(-c2c(Oc3ncc(F)cn3)cccc2C(F)F)c1",
    "readout.name": "Plant response rating, Nutsedge, Yellow",
    "result.value": 5
  },
  {
    "test.smiles": "Cc1cnc(Oc2cccc(C#N)c2-n2cc(C(F)(F)F)cn2)nc1",
    "readout.name": "Plant response rating, Nutsedge, Yellow",
    "result.value": 10
  }
]

Continue with the compound presented below.
Please report Plant response rating, Nutsedge, Yellow with yellow nutsedge for item N#Cc1cnn(-c2c(C#N)cccc2Oc2ncc(Cl)cn2)c1 .
30

* * *

- System: soybean
- measurement.description: Test C postemergence
- Assay type: in vivo, Glycine max
- condition.set: 125 g ai/ha, postemergence; visual rating, scale 0 to 100 (0 no effect, 100 complete control)
# Plant response rating, Soybean per entry
Lab note: write the figure by itself, no unit.

Example cases with answers are listed next.
[
  {
    "test.smiles": "Cc1cnc(Oc2cccc(C#N)c2-n2cc(C(F)(F)F)cn2)nc1",
    "result.value": 95
  },
  {
    "test.smiles": "FC(F)(F)c1cnn(-c2c(Br)cccc2Oc2ncc(Cl)cn2)c1",
    "result.value": 30
  },
  {
    "test.smiles": "Clc1cnc(Oc2cccc(Br)c2-n2cc(Cl)cn2)nc1",
    "result.value": 80
  }
]

Continue with the compound presented below.
Return the recorded Plant response rating, Soybean value; entry: Clc1cnc(Oc2ccccc2-n2cc(Br)nn2)nc1
95

* * *

- Test system: corn
- measurement.description: Test A preemergence
- Assay type: in vivo, Zea mays
- condition.set: 500 g ai/ha, 0 to 100 scale, 0 no effect, 100 complete control, approx. 10 days
readout.name: Corn plant response rating
Lab note: write the figure by itself, no unit.

[
  {
    "test.smiles": "Clc1cnc(Oc2cc(Cl)ccc2-n2cccn2)nc1",
    "result.value": 0
  },
  {
    "test.smiles": "Clc1cnc(Oc2ccccc2-n2ccc(Br)n2)nc1",
    "result.value": 0
  }
]

Return the recorded Corn plant response rating value; entry: C=Cc1cnn(-c2ccccc2Oc2ncc(Cl)cn2)c1
0
